Tested on: U-266 (Plasma Cell Myeloma)
Experiment: combination Emax (second highest fraction inhibited in the dose matrix, 72 h); higher = more inhibition; extreme values may be limits of the assay
Assign combination Emax to each entry below.
Write the number on its own, no unit after it.

Data request: Dear colleague, I am looking for the recorded combination Emax of the following compound: CC(=O)c1c(C)c2cnc(Nc3ccc(N4CCNCC4)cn3)nc2n(C2CCCC2)c1=O [Palbociclib] + Cc1c2c(nn1C)CSCc1cc(n(C)n1)CSc1cc(c3ccccc3c1)OCCCc1c(C(=O)O)n(C)c3c-2c(Cl)ccc13 [AZD5991] (first compound max 10 µM, 7x7, partner max 1 µM)
Data returned: 0.872

Data request: Also need CC1(C)CCC(CN2CCN(c3ccc(C(=O)NS(=O)(=O)c4ccc(NCC5CCOCC5)c([N+](=O)[O-])c4)c(Oc4cnc5[nH]ccc5c4)c3)CC2)=C(c2ccc(Cl)cc2)C1 [Venetoclax] + C1CN(CCC1(C(=O)N[C@@H](CCO)C2=CC=C(C=C2)Cl)N)C3=NC=NC4=C3C=CN4 [Capivasertib] (first compound max 1 µM, 7x7, partner max 3 µM) , thanks.
Data returned: 0.555
